Numbers sourced from patent US10792365B2.

Assay Procedure: Parallel Artificial Membrane Permeation Assay (PAMPA), Pre-coated PAMPA Plate System (Corning)
Protocol: Reference Example 14, the Compound of Reference Example 16, and the Compound of Comparative Example was Evaluated by Using Pre-Coated PAMPA PlateSystem (Corning) A frozen-stored, Pre-coated PAMPA Plate System was allowed to stand at room temperature for thirty minutes or more. […] The reaction liquid in each well of the Donor side and Acceptor side plates was subjected to LC/MS analysis (hereinafter, LC/MS-3), and the concentration of the compounds in each well calculated. […]
Reported Papp at 5 h, 200 μmol/L values for the following molecules.
Reported Metric: Papp at 5 h, 200 μmol/L (×10⁻⁶ cm/s)

[[record]]
molecule = "CC[C@H](C)[C@@H]([C@@H](CC(=O)N1CCC[C@H]1[C@H](OC)[C@@H](C)C(=O)N[C@@H](Cc1ccccc1)c1nc(C(=O)NCCO)cs1)OC)N(C)C(=O)[C@@H](NC(=O)[C@H](C(C)C)N(C)C)C(C)C [Example 7]"
readout_units = "×10⁻⁶ cm/s"
experimental_result = 0.02

[[record]]
molecule = "CC[C@H](C)[C@@H]([C@@H](CC(=O)N1CCC[C@H]1[C@H](OC)[C@@H](C)C(=O)N[C@@H](Cc1ccccc1)c1nc(C(=O)N(C)CCO)cs1)OC)N(C)C(=O)[C@@H](NC(=O)[C@H](C(C)C)N(C)C)C(C)C [Example 9]"
readout_units = "×10⁻⁶ cm/s"
experimental_result = 0.08

[[record]]
molecule = "CC[C@H](C)[C@@H]([C@@H](CC(=O)N1CCC[C@H]1[C@H](OC)[C@@H](C)C(=O)N[C@@H](Cc1ccccc1)c1nc(C(=O)OCCO)cs1)OC)N(C)C(=O)[C@@H](NC(=O)[C@H](C(C)C)N(C)C)C(C)C [Example 8]"
readout_units = "×10⁻⁶ cm/s"
experimental_result = 0.04

[[record]]
molecule = "CC[C@H](C)[C@@H]([C@@H](CC(=O)N1CCC[C@H]1[C@H](OC)[C@@H](C)C(=O)N[C@@H](Cc1ccccc1)c1nc(C(=O)N(C)CCN)cs1)OC)N(C)C(=O)[C@@H](NC(=O)[C@H](C(C)C)N(C)C)C(C)C [Example 5]"
readout_units = "×10⁻⁶ cm/s"
experimental_result = 0.01

